Assay: Therapeutic index of compound maesured as ratio of ID50 for WI-38 cell growth inhibition / ID50 anti-VZV (strain Ellen)
Type: cell-based
Conditions: human, WI-38 cells; read-out: Therapeutic index
Property name: selectivity ratio

# count of solved cases: 3
Compound	Property name	Result
O=c1[nH]c(=O)n([C@@H]2C[C@H](CO)C2CO)cc1/C=C/Cl (stereo not given in full)	selectivity ratio	> 2
O=c1[nH]c(=O)n(C2CC(CO)C2CO)cc1/C=C/Br (racemic)	selectivity ratio	> 2.5
O=c1[nH]c(=O)n([C@@H]2C[C@H](CO)C2CO)cc1/C=C/Br (stereo not given in full)	selectivity ratio	> 1.3

Reported selectivity ratio for O=c1[nH]c(=O)n([C@@H]2C[C@H](CO)C2CO)cc1/C=C/I (stereo not given in full) was > 2.7

Reported selectivity ratio for O=c1[nH]c(=O)n([C@@H]2O[C@H](CO)[C@@H](O)[C@@H]2O)cc1/C=C/Br [SORIVUDINE] was > 7.5

----------
Biological target: Thymidine kinase, cytosolic (Homo sapiens) (UniProt P04183)
Sequence (whole entry): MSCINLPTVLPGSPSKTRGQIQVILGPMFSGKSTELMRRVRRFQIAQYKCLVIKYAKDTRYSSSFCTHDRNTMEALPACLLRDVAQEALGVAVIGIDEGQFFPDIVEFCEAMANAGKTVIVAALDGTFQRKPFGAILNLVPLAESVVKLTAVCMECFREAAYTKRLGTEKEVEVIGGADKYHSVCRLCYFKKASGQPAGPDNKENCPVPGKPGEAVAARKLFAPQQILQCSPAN
Settings: Human alphaherpesvirus 3
Define the label as Criterion met when Kinase activity (pM min-1*ml-1) is strictly less than 600 and as Criterion not met in all remaining cases.

Some solved cases for reference:
Compound	Assigned label
O=c1[nH]c(=O)n([C@@H]2C[C@H](CO)C2CO)cc1/C=C/I (some centres not stated)	Criterion not met
O=c1[nH]c(=O)n([C@@H]2O[C@H](CO)[C@@H](O)[C@@H]2O)cc1/C=C/Br	Criterion met
O=c1[nH]c(=O)n([C@@H]2C[C@H](CO)C2CO)cc1/C=C/Cl (some centres not stated)	Criterion met
O=c1[nH]c(=O)n([C@@H]2C[C@H](CO)C2CO)cc1/C=C/Br (some centres not stated)	Criterion met
O=c1[nH]c(=O)n(C2CC(CO)C2CO)cc1/C=C/Br (racemic)	Criterion not met

# evaluate next
Does "Nc1nc2c(ncn2COCCO)c(=O)[nH]1" have Kinase activity (pM min-1*ml-1) strictly under 600?
Criterion met

----------
# maps each entry to its pIC50
Tested on: WI-38
Experiment: Anti viral activity against HCMV(AD169) in WI-38 cell monolayers
Type: functional
Details: Homo sapiens, read-out: ID50 (the source's name)
Would you please state pIC50, meaning minus log10 of the concentration in mol/L, as a bare number?

Compound	Property name	Quantitative result
O=c1[nH]c(=O)n([C@@H]2C[C@H](CO)C2CO)cc1/C=C/I (stereo partly specified)	pIC50	3.59
O=c1[nH]c(=O)n([C@@H]2C[C@H](CO)C2CO)cc1/C=C/Cl (stereo partly specified)	pIC50	3.46

Now turn to the next compound.
Reported pIC50 for "Nc1nc2c(ncn2COCCO)c(=O)[nH]1" was 4.40

----------
System: WI-38
Assay: Anti viral activity against VZV in WI-38 cell monolayers.
Type: functional
Conditions: Homo sapiens, read-out: ID50 (the source's name)
pIC50: −log10 of the molar value.
Property name: pIC50

Reported pIC50 for O=c1[nH]c(=O)n([C@@H]2C[C@H](CO)C2O)cc1I (stereo partly specified) was < 3.52

The origin of these recorded values is ChEMBL document CHEMBL1126039.
